experimentalProtocol: chemical genetic growth profiling, strain panel (AID 1159580);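 note: tested at 20 µM; growth read once vehicle control cultures reached saturation at 30 °C; lower values mean less growth of the strain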
condition: S. cerevisiae deletion strains, growth OD, locus YPR119W, strain clb2
Screen size: about 5,500 compounds; about 2,000 (36%) were called active. Roughly 18% stayed inconclusive and do not appear here. Cut-off read from the data, not from the text of the source: active = normalized growth mostly below about 0.91 (no sharp cut-off); inconclusive = no clear call, values can overlap the other calls; inactive = mostly above about 0.92. The list shows a part of the results.
// allowed return values: active, inactive

Which result was noted for this molecule in the test: CC(=O)O[C@H]1C[C@@H](O)C(C)(C)C2C[C@@H](OC(C)=O)[C@]3(C)C(CC[C@@]4(C)[C@H](c5ccoc5)OC(=O)C5OC543)[C@]21C (stereo partly drawn) inactive

Can you handle `C[n+]1cc2c3c(ccc2c2ccc4cc5c(cc4c21)OCO5)OCO3` next? active

Can you handle C=C1C2CC[C@@]3(C)[C@H](c4ccoc4)OC(=O)C[C@]13O[C@H]1CC(=O)C(C)(C)[C@H](C(O)C(=O)OC)[C@@]21C (stereo partly drawn) next? inactive

Can you handle C=CCCCCCCCCCCCC(O)CC(O)CO (stereo not drawn) next? inactive

Can you handle `Nc1ccc(C(=O)Oc2ccccc2)c(O)c1` next? active

Can you handle C=CCCCCCCCCCCCC(O)CC(O)CO (stereo not drawn) (tested in a mixture with another compound) next? active

Can you handle CC(=O)OC1CC2C(C)(C)CCCC2(C)C2CCC3(C)C(c4ccoc4)OC(=O)C4OC43C12C (stereo not drawn) next? inactive

Can you handle `CC(=O)Nc1ccc(OC(=O)c2ccccc2O)cc1` next? inactive
